Collected Papp at 18 hours, 50 µM values appear next to each entry.
- test method notes: PAMPA (parallel artificial membrane permeability assay)
- Assay type: in vitro ADME
- condition description: PAMPA; membrane permeation rate (Pe); 50 mM MOPSO buffer pH 6.5 with 5.0% glycocholic acid, 37° C., 18 hours; read-out: iPAMPA Pe
Starred links: 1 amine or outer side, 2 acyl side, 3 side chain; linkers in the order of their positions; H or OH if unused. Positions of bridges follow the written chain, without caps; N, C: chain ends. Non-standard residues stand in square brackets, D forms with d. Residues, ends and D or L forms follow the SMILES beside them. *: point of attachment. NMeF = CN[C@@H](Cc1ccccc1)C(=O)O; NMeGABA = CN(CCCC(=O)[*:2])[*:1]; NMeI = CC[C@H](C)[C@H](NC)C(=O)O; NMeL = CN[C@@H](CC(C)C)C(=O)O; NMeV = CN[C@H](C(=O)O)C(C)C; NMeS = CN[C@@H](CO)C(=O)O; NMeA = CN[C@@H](C)C(=O)O; Piperidide = C1CCN(*)CC1; β3hA = C[C@H](N)CC(=O)O; Sar = CNCC(=O)O; tBu = CC(C)(C)*
# value in ×10⁻⁶ cm/s; strip the unit string

>  <compound>
CC(C)C[C@@H]1NC(=O)[C@H](CO)N(C)C(=O)C[C@H](C)NC(=O)[C@H](CC(C)C)N(C)C(=O)[C@H](CC(C)C)N(C)C(=O)[C@@H](C)NC(=O)[C@H](C(C)C)NC(=O)[C@H](CC(C)C)N(C)C(=O)[C@H](C(C)C)NC(=O)[C@H](CC(C)C)N(C)C(=O)CN(C)C1=O [DP-652] (cyclo(L[Sar][NMeL]V[NMeL]V[dA][NMeL][NMeL][β3hA][NMeS]))

>  <readout value>
30

$$$$
>  <compound>
CC(C)C[C@@H]1NC(=O)[C@H](CC(C)C)N(C)C(=O)[C@H](C)N(C)C(=O)[C@H](Cc2ccccc2)NC(=O)[C@H](C(C)C)N(C)C(=O)CNC(=O)[C@H]([C@@H](C)O)NC(=O)[C@H](C)N(C)C(=O)[C@H](CC(C)C)N(C)C(=O)[C@H](C)N(C)C(=O)C[C@@H](C(=O)N(C)[C@@H](Cc2ccccc2)C(=O)N[C@@H](C)C(=O)N2CCCCC2)NC1=O [DP-181] ([NMeA][NMeL][NMeA]TG[NMeV]F[NMeA][NMeL]LD[NMeF]A-Piperidide; lactam N-11)

>  <readout value>
18

$$$$
>  <compound>
CC(C)C[C@H]1C(=O)N(C)[C@@H](CC(C)C)C(=O)N[C@@H](COC(C)(C)C)C(=O)N[C@H](C(=O)N2CCCCC2)CC(=O)N[C@@H](C(C)C)C(=O)N(C)[C@@H](Cc2ccccc2)C(=O)N(C)CC(=O)N[C@@H]([C@@H](C)O)C(=O)N1C [DP-694] (V[NMeF][Sar]T[NMeL][NMeL]S(tBu)D-Piperidide; lactam N-8)

>  <readout value>
33

$$$$
>  <compound>
CC(C)C[C@H]1C(=O)N[C@@H](Cc2ccccc2)C(=O)N[C@H](C(=O)N(C)[C@@H](Cc2ccccc2)C(=O)N[C@@H](C)C(=O)N2CCCCC2)CC(=O)N(C)CCCC(=O)N[C@@H]([C@@H](C)O)C(=O)N(C)CC(=O)N(C)[C@@H](C)C(=O)N[C@@H](C(C)C)C(=O)N(C)[C@@H](Cc2ccccc2)C(=O)N1C [DP-383] ([NMeGABA]T[Sar][NMeA]V[NMeF][NMeL]FD[NMeF]A-Piperidide; lactam N-9)

>  <readout value>
14

$$$$

GET /value?item= CC[C@H](C)[C@H]1C(=O)N[C@@H]([C@@H](C)O)C(=O)N(C)CC(=O)N[C@H](C(=O)N2CCCCC2)CC(=O)N[C@H](C(C)C)C(=O)N[C@@H](CC(C)C)C(=O)N(C)[C@@H](CC(C)C)C(=O)N(C)[C@@H](Cc2ccccc2)C(=O)N[C@@H](C)C(=O)N(C)[C@@H](Cc2ccccc2)C(=O)N(C)[C@@H](CC(C)C)C(=O)N1C [DP-232] ([dV]L[NMeL][NMeF]A[NMeF][NMeL][NMeI]T[Sar]D-Piperidide; lactam N-11) &field=Papp at 18 hours, 50 µM returns 18

meta.source: patent US9409952B2
